Test system: 958667-338-R-J2-PDC tumor spheroids viability
ASSAY_TEXT: Anticancer human tumor 958667-338-R-J2-PDC patient-derived colon adenocarcinoma cell line growth inhibition [PI3K]
REPORTED_CONDITIONS: curve of first compound; second compound 0.0316 µM; spheroids with HUVEC and MSC
For each entry below, report its IC50 value.

Would you please look over these solved cases?
>  <COMPOUND>
CC(Cn1ccc(-c2ccc(C#N)c(Cl)c2)n1)NC(=O)c1cc(C(C)O)[nH]n1 (stereo not drawn) + Cc1nc(NC(=O)N2CCCC2C(N)=O)sc1-c1ccnc(C(C)(C)C(F)(F)F)c1

>  <IC50>
> 10 µM

$$$$
>  <COMPOUND>
CC(=O)c1c(C)c2cnc(Nc3ccc(N4CCNCC4)cn3)nc2n(C2CCCC2)c1=O + CC(Nc1ncnc2nc[nH]c12)c1cc2cccc(Cl)c2c(=O)n1-c1ccccc1

>  <IC50>
> 0.1 µM

$$$$

// switching to the query compound
QUERY: Field request: IC50 | item: CC(C)NCC(C(=O)N1CCN(c2ncnc3c2C(C)CC3O)CC1)c1ccc(Cl)cc1 (stereo not drawn) + CC(Nc1ncnc2nc[nH]c12)c1cc2cccc(Cl)c2c(=O)n1-c1ccccc1
RESULT: > 10 µM

----------
System: 958667-338-R-J2-PDC tumor spheroids viability
ASSAY_TEXT: Anticancer human tumor 958667-338-R-J2-PDC cell line growth inhibition [PI3K];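 further: spheroids exposed to compounds for seven days before readout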
REPORTED_CONDITIONS: curve of first compound; second compound 0.0316 µM; spheroids with HUVEC and MSC
For each entry below, report its IC50 value.

Okay, here is my list. What is IC50 for each of these?
1. C=CC(=O)N1CCN(c2nc(=O)n(-c3c(C)ccnc3C(C)C)c3nc(-c4c(O)cccc4F)c(F)cc23)C(C)C1 (stereo not drawn) + CC(Nc1ncnc2nc[nH]c12)c1cc2cccc(Cl)c2c(=O)n1-c1ccccc1
2. C#Cc1c(F)ccc2cc(O)cc(-c3ncc4c(N5CC6CCC(C5)N6)nc(OCC56CCCN5CC(F)C6)nc4c3F)c12 (stereo not drawn) + Cc1nc(NC(=O)N2CCCC2C(N)=O)sc1-c1ccnc(C(C)(C)C(F)(F)F)c1
3. C=CC(=O)N1CCN(c2nc(=O)n(-c3c(C)ccnc3C(C)C)c3nc(-c4c(O)cccc4F)c(F)cc23)C(C)C1 (stereo not drawn) + COc1c(OCCCN2CCOCC2)ccc2c3n(c(=NC(=O)c4cnc(N)nc4)nc12)CCN3

RESULT:
["> 10 µM", "> 10 µM", "> 10 µM"]

----------
Test system: 958667-338-R-J2-PDC tumor spheroids viability
ASSAY_TEXT: Anticancer human tumor 958667-338-R-J2-PDC cell line growth inhibition [PI3K];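 further: spheroids exposed to compounds for seven days before readout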
REPORTED_CONDITIONS: curve of first compound; second compound 0.316 µM; spheroids with HUVEC and MSC
From the text: Combinatorial screen of targeted agents with the PI3K inhibitors inavolisib, alpelisib, duvelisib, and copanlisib in multi-cell type tumor spheroids A high-throughput screen of multi-cell type tumor spheroids was designed to identify active combinations of targeted small molecules and PI3K pathway inhibitors. […] Compounds. […] If the clinical Cmax for an agent had not been determined, the highest concentration tested was 10 microM. […]
PROPERTY_LABEL: pIC50
Numbers only, as −log10 of the molar value.

Would you please look over these solved cases?
>  <COMPOUND>
CC1(C)CCC(Nc2ncc(C(F)(F)F)c(-c3c[nH]c4c(P(C)(C)=O)c(C#N)ccc34)n2)CN1 (stereo unspecified) + CC(Nc1ncnc2nc[nH]c12)c1cc2cccc(Cl)c2c(=O)n1-c1ccccc1

>  <pIC50>
5.38

$$$$
>  <COMPOUND>
Cn1ncc(Cl)c1-c1cc(C(=O)NC(CN)Cc2cccc(F)c2)sc1Cl (stereo unspecified) + CC(Nc1ncnc2nc[nH]c12)c1cc2cccc(Cl)c2c(=O)n1-c1ccccc1

>  <pIC50>
5.86

$$$$

QUERY: Field request: pIC50 | item: CC(C)n1nc(-c2ccc3oc(N)nc3c2)c2c(N)ncnc21 + Cc1nc(NC(=O)N2CCCC2C(N)=O)sc1-c1ccnc(C(C)(C)C(F)(F)F)c1
RESULT: 7.23
